Exercise: state measured Activity for each of the molecules provided.
Test system: PC-12
MEASUREMENT NOTES: Neuroprotective activity against rat PC12 cells assessed as reduction in amyloid beta (25 to 35)-induced cytotoxicity at 15 uM incubated for 4 hrs followed by amyloid beta (25 to 35) treatment for 24 hrs by MTT assay relative to control
Format: functional
Set-up: scale not given: the % may be the effect or the level left
RECORDED CONDITIONS: time 28 hrs
Expressed in %, but write only the number.

Query: # Activity lookup, item "COc1cc(/C=C/C(=O)O[C@H]2CC[C@]3(C)[C@H]4C[C@@H](O)[C@@H]5[C@@H]([C@@]6(C)CCCC(C)(C)O6)CC[C@@]5(C)[C@]4(C)CC[C@H]3C2(C)C)cc(OC)c1OC"
Response: 36.23

Query: Also, "COc1cc(/C=C/C(=O)O[C@H]2CC[C@]3(C)[C@H]4C[C@@H](O)[C@@H]5[C@@H]([C@@]6(C)CCCC(C)(C)O6)CC[C@@]5(C)[C@]4(C)CC[C@H]3C2(C)C)ccc1O" please.
Response: 55.55

Query: Okay, and "CC1(C)CCC[C@](C)([C@H]2CC[C@]3(C)[C@@H]2[C@H](O)C[C@@H]2[C@@]4(C)CC[C@H](OC(=O)c5cn(-c6ccc(Cl)cc6)nn5)C(C)(C)[C@@H]4CC[C@]23C)O1" ?
Response: 36.15

Query: Please do the same for "CC1(C)CCC[C@](C)([C@H]2CC[C@]3(C)[C@@H]2[C@H](O)C[C@@H]2[C@@]4(C)CC[C@H](OC(=O)Nc5ccc(F)cc5)C(C)(C)[C@@H]4CC[C@]23C)O1" as well.
Response: 67.4

Query: Input "COC(=O)[C@@H](CC(C)C)NC(=O)CCC(=O)O[C@H]1CC[C@]2(C)[C@H]3C[C@@H](O)[C@@H]4[C@@H]([C@@]5(C)CCCC(C)(C)O5)CC[C@@]4(C)[C@]3(C)CC[C@H]2C1(C)C"
Response: 16.07
